Source: PubChem BioAssay (NCATS)

Below is a list of entries, each paired with its recorded activity, negative = inhibition value.
# test_description: Stat Signaling Pathway (AID 446);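 also: ME-180 cervical cancer cells given 40 pM IL-6 alongside compound; SIE-controlled beta-lactamase reporter measured as 460/530 nm FRET emission ratio; % is scaled to controls: 0 for no effect and ±100 for the full control effect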
# measurement_parameters: ME-180 (cervical carcinoma) SIE beta-lactamase reporter, IL-6 stimulated, 5 h; at 17.2 µM (top of the series) unless noted
Inconclusive results are not listed.
Field: numeric (%). Do not append units.

In [3]: df
Out[3]:
                                   molecule                property_measured  result
0                 CNc1oc(-c2ccccc2Cl)nc1C#N  activity, negative = inhibition  -0.918
1                  O=C(O)c1ccc(C2CCCCC2)cn1  activity, negative = inhibition    15.1
2  CC(=O)c1c(C(C)=O)c(C)n(NC(=O)c2ccncc2)c1C  activity, negative = inhibition      17
3  COc1ccc(N/C=C(\C#N)c2nc3ccccc3n2C)c(OC)c1  activity, negative = inhibition     -22
4  CCCOc1cccc(C2/C(=C(/O)c3ccc(F)cc3)C(=O)C(=O)N2CCN(C)C)c1 (stereo unspecified)  activity, negative = inhibition  -0.187

Alright, here's another molecule for you.
activity, negative = inhibition in this record for COc1cc(C2C(C#N)=C(N)Oc3cc(C)n(CCN4CCOCC4)c(=O)c32)cc(OC)c1OC (stereo unspecified) : -2.02
